Assay: Plasma and tissue distribution in SD rats
Type: in vivo
Details: female SD rat, PO 10 mg/kg, Eyeball (left and right)
measured attribute: half-life (h)
The reply should contain only the number, in h.

Q: Which half-life reading was recorded for the compound C[C@@H](c1ccc(Nc2cc(Nc3ncccc3S(C)(=O)=O)ncn2)nc1)N1CC2(COC2)C1 ?
Result: 4.51

----------
Experiment: Plasma and tissue distribution in SD rats
Format: in vivo
Details: Sprague-Dawley; plasma, female SD rat, PO 10 mg/kg
measured attribute: Tmax (min)
The reply should contain only the number, in min.

Q: Which Tmax reading was recorded for the compound C[C@@H](c1ccc(Nc2cc(Nc3ncccc3S(C)(=O)=O)ncn2)nc1)N1CC2(COC2)C1 ?
Result: 30

----------
Assay: Plasma and tissue distribution in SD rats
Assay type: in vivo
Conditions: male; M SD rat, Skin
measured attribute: Cmax (ng/mL)
The reply should contain only the number, in ng/mL.

Q: Which Cmax reading was recorded for the compound C[C@@H](c1ccc(Nc2cc(Nc3ncc(F)cc3S(C)(=O)=O)ncn2)nc1)N1CC2(COC2)C1 [Compound 2] ?
Result: 1460

----------
Assay: Plasma and tissue distribution in SD rats
Assay type: in vivo
Conditions: Sprague-Dawley; male SD rat, PO 10 mg/kg, Heart
measured attribute: half-life
Kindly write the number and append the unit.

Q: Which half-life reading was recorded for the compound C[C@@H](c1ccc(Nc2cc(Nc3ncccc3S(C)(=O)=O)ncn2)nc1)N1CC2(COC2)C1 ?
Result: 2.31 h

----------
Experiment: Plasma and tissue distribution in SD rats
Format: in vivo
Settings: male, Sprague-Dawley, rat, testis, M SD rat, Testis; read-out: AUClast
measured attribute: AUC(0-t) (ng·h/mL)
The reply should contain only the number, in ng·h/mL.

Q: Which AUC(0-t) reading was recorded for the compound C[C@@H](c1ccc(Nc2cc(Nc3ncc(F)cc3S(C)(=O)=O)ncn2)nc1)N1CC2(COC2)C1 ?
Result: 5090

----------
Assay: Plasma and tissue distribution in SD rats
Format: in vivo
Conditions: Sprague-Dawley, rat, large intestine, oral, SD rat, Large Intestine; read-out: Tissue/Plasma Ratio (AUCinf)
measured attribute: Kp

[
  {
    "structure": "C[C@@H](c1ccc(Nc2cc(Nc3ncccc3S(C)(=O)=O)ncn2)nc1)N1CC2(COC2)C1",
    "Kp": "~13"
  }
]

Q: Which Kp reading was recorded for the compound C[C@@H](c1ccc(Nc2cc(Nc3ncc(F)cc3S(C)(=O)=O)ncn2)nc1)N1CC2(COC2)C1 ?
Result: ~23

----------
Assay: Plasma and tissue distribution in SD rats
Type: in vivo
Settings: Sprague-Dawley; male SD rat, PO 10 mg/kg, Fat
measured attribute: Tmax (min)
The reply should contain only the number, in min.

Q: Which Tmax reading was recorded for the molecule C[C@@H](c1ccc(Nc2cc(Nc3ncccc3S(C)(=O)=O)ncn2)nc1)N1CC2(COC2)C1 ?
Result: 30

----------
Assay: Plasma and tissue distribution in SD rats
Assay type: in vivo
Settings: female SD rat, PO 10 mg/kg, Heart
measured attribute: half-life (min)
The reply should contain only the number, in min.

Q: Which half-life reading was recorded for the molecule C[C@@H](c1ccc(Nc2cc(Nc3ncccc3S(C)(=O)=O)ncn2)nc1)N1CC2(COC2)C1 ?
Result: 173

----------
Test: Mouse plasma pharmacokinetics, PO 5 mg/kg
Type: in vivo
Experimental: The following example describes the methods used to evaluate the pharmacokinetics of TYK2 inhibitors in vivo following dosing of a compound of the invention. The pharmacokinetics of test compounds were evaluated in either male CD-1 mice or male C57BL/6 mice when administered by oral gavage and IV bolus injection. […] The plasma samples were analyzed by LC-MS/MS and the concentration of test compound at each time point was determined by linear regression. […]
measured attribute: Maximum plasma concentration (Cmax)

[
  {
    "compound": "CS(=O)(=O)c1cccnc1Nc1cc(Nc2ccc3c(n2)CCCC3N2CC3(COC3)C2)ncn1 (stereo in doubt)",
    "test result": "††† (†††: >1500)"
  },
  {
    "compound": "Cc1nc(Nc2cc(Nc3ncccc3S(C)(=O)=O)ncn2)ccc1[C@H](C)N1CC2(COC2)C1 (stereo in doubt)",
    "test result": "††† (†††: >1500)"
  },
  {
    "compound": "C[C@@H](c1ccc(Nc2cc(Nc3ncc(F)cc3S(C)(=O)=O)ncn2)nc1)N1CC2(COC2)C1",
    "test result": "††† (†††: >1500)"
  }
]

----------
Test: Plasma and tissue distribution in SD rats
Type: in vivo
Conditions: female; F SD rat, Plasma
measured attribute: Tmax (h)
The reply should contain only the number, in h.

Q: Which Tmax reading was recorded for the molecule C[C@@H](c1ccc(Nc2cc(Nc3ncc(F)cc3S(C)(=O)=O)ncn2)nc1)N1CC2(COC2)C1 ?
Result: 8

----------
Biological target: TYK2-JH2 (Homo sapiens, UniProt P29597)
Construct: TYK JH2 enzyme mix (ChemPartner: CP20210818A-BV); purchased ChemPartner CP20210818A-BV
Sequence (P29597 589-875 limits assumed): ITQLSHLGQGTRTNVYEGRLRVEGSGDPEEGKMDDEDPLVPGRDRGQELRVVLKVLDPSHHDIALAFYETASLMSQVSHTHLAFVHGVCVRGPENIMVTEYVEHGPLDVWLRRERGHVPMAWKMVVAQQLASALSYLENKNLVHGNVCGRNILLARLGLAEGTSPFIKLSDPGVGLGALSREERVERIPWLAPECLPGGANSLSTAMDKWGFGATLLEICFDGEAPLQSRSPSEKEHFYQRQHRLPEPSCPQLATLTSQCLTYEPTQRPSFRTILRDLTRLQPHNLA
Assay: TYK2-JH2 HTRF binding assay (ligand efficiency)
Conditions: calculated from binding-assay IC50 (Equation 1)
From the text: The following example describes the TYK2-JH2 HTRF binding assay used to determine the ligand efficiency of the TYK2 inhibitors. To calculate ligand efficiency, Equation 1 is applied: […] in which IC50 comes from the binding assay used to determine compound potency. […]
measured attribute: Ligand Efficiency

Examples from the recorded data:
[
  {
    "molecule": "Cc1cccc(Nc2cc(Nc3ncccc3CS(C)(=O)=O)ncn2)n1 [Compound 71]",
    "measurement target": "TYK2-JH2 (Homo sapiens, UniProt P29597)",
    "Ligand Efficiency": "††† (†††: >0.39)"
  },
  {
    "molecule": "CC(c1ccc(Nc2cc(Nc3ncccc3S(C)(=O)=O)ncn2)nc1)N1CCCC1 (stereo in doubt) [Compound 15]",
    "measurement target": "TYK2-JH2 (Homo sapiens, UniProt P29597)",
    "Ligand Efficiency": "††† (†††: >0.39)"
  },
  {
    "molecule": "Cc1cccc(Nc2cc(Nc3cccnc3S(C)(=O)=O)ncn2)n1 [Compound 59]",
    "measurement target": "TYK2-JH2 (Homo sapiens, UniProt P29597)",
    "Ligand Efficiency": "††† (†††: >0.39)"
  },
  {
    "molecule": "COc1cnc(Nc2cc(Nc3ccc([C@H](C)N4CC5(COC5)C4)cn3)ncn2)c(S(C)(=O)=O)c1 [Compound 3]",
    "measurement target": "TYK2-JH2 (Homo sapiens, UniProt P29597)",
    "Ligand Efficiency": "†† (††: 0.37-0.39)"
  },
  {
    "molecule": "C[C@@H](c1ccc(Nc2cc(Nc3ncccc3S(C)(=O)=O)ncn2)nc1)N1C[C@H]2COC[C@H]2C1 [Compound 25]",
    "measurement target": "TYK2-JH2 (Homo sapiens, UniProt P29597)",
    "Ligand Efficiency": "††† (†††: >0.39)"
  }
]

Q: Which Ligand Efficiency reading was recorded for the molecule COc1ccc(Nc2cc(NC(=O)C3CC3)ncn2)c(C(N)=O)c1 [Compound 70] ?
Result: ††† (†††: >0.39)

Q: Which Ligand Efficiency reading was recorded for the molecule Cc1nccc(Nc2cc(Nc3ccccc3C(N)=O)ncn2)n1 [Compound 48] ?
Result: ††† (†††: >0.39)

Q: Which Ligand Efficiency reading was recorded for the molecule CC(c1ccc(Nc2cc(Nc3ncccc3S(C)(=O)=O)ncn2)nc1)N1CC2(CCOCC2)C1 (stereo in doubt) [Compound 31] ?
Result: †† (††: 0.37-0.39)

----------
Experiment: Plasma and tissue distribution in SD rats
Format: in vivo
Settings: female SD rat, PO 10 mg/kg, Bladder
Method: The following Example describes the methods and data used to evaluate the tissue distribution of TYK2 inhibitors following the administration of either compound 1 or compound 2. Thirty (30, 15/sex) SD rats supplied by Beijing Vital River Laboratory Animal Technology Co., Ltd. were used in this study. […] The room (s) was controlled and monitored for relative humidity (targeted mean range 40% to 70%) and temperature (targeted mean range 20° C. to 26° C.) with 15 or above air changes/hour. […]
measured attribute: Cmax (ng/g)
The reply should contain only the number, in ng/g.

Q: Which Cmax reading was recorded for the molecule C[C@@H](c1ccc(Nc2cc(Nc3ncccc3S(C)(=O)=O)ncn2)nc1)N1CC2(COC2)C1 ?
Result: 4150

----------
Experiment: Plasma and tissue distribution in SD rats
Format: in vivo
Settings: Sprague-Dawley; male SD rat, PO 10 mg/kg, Eyeball (left and right)
measured attribute: Cmax (ng/g)
The reply should contain only the number, in ng/g.

Q: Which Cmax reading was recorded for the compound C[C@@H](c1ccc(Nc2cc(Nc3ncccc3S(C)(=O)=O)ncn2)nc1)N1CC2(COC2)C1 ?
Result: 327

----------
Assay: Plasma and tissue distribution in SD rats
Format: in vivo
Conditions: female, Sprague-Dawley; F SD rat, Adipose
measured attribute: Tmax (min)
The reply should contain only the number, in min.

Q: Which Tmax reading was recorded for the compound C[C@@H](c1ccc(Nc2cc(Nc3ncc(F)cc3S(C)(=O)=O)ncn2)nc1)N1CC2(COC2)C1 ?
Result: 30
